Data credit: patent US20210188843A1

Test: Solubility pH 7.4
Format: physicochemical
Details: aqueous buffer, Table 1
property: solubility

Reference set (5 entries):
Cc1ccc(Cl)cc1-n1c(=N)n(C)c2cnc3ccc(-c4ccc(Cl)cc4)cc3c21    < 1 µg/mL
Cc1cc(N2CCN(C)CC2)c(C#N)cc1-n1c(=N)n(C)c2cnc3ccc(-c4cccc(F)c4)cc3c21    > 50 µg/mL
Cc1cccc(-c2ccc3ncc4c(c3c2)n(-c2cc(C#N)ccc2C)c(=N)n4C)c1    > 40 µg/mL
Cn1c(=N)n(-c2cccc(F)c2)c2c3cc(-c4ccc(Cl)cc4)ccc3ncc21    < 1 µg/mL
Cc1ccc(C#N)cc1-n1c(=N)n(C)c2cnc3ccc(-c4cccc(F)c4)cc3c21    > 40 µg/mL

Which solubility reading was recorded for the compound `Cc1ccc(C#N)cc1-n1c(=N)n(C)c2cnc3ccc(-c4cccc(O)c4)cc3c21` ? > 40 µg/mL

Which solubility reading was recorded for the compound `Cc1ccc(C#N)cc1-n1c(=N)n(Cc2ccccc2)c2cnc3ccc(-c4ccc(Cl)cc4)cc3c21` ? < 1 µg/mL

Which solubility reading was recorded for the compound `Cc1cc(N2CCOCC2)c(C#N)cc1-n1c(=N)n(C)c2cnc3ccc(-c4ccc(Cl)cc4)cc3c21` ? < 1 µg/mL

Which solubility reading was recorded for the compound `Cc1ccc(C#N)cc1-n1c(=N)n(C)c2cnc3ccc(-c4ccccn4)cc3c21` ? > 39 µg/mL

Which solubility reading was recorded for the compound `Cc1ccccc1-n1c(=N)n(C)c2cnc3ccc(-c4ccc(Cl)cc4)cc3c21` ? > 39 µg/mL

====

Experiment: PAMPA permeability
Assay type: in vitro ADME
Settings: Table 1
property: Papp (×10⁻⁶ cm/s)

Cn1c(=N)n(-c2cccc(C#N)c2)c2c3cc(-c4ccc(Cl)cc4)ccc3ncc21    1000
CC(=O)N1CCN(c2nc(C)c(-n3c(=N)n(C)c4cnc5ccc(-c6ccc(Cl)cc6)cc5c43)cc2C#N)CC1    112
Cc1ccc(C(N)=O)cc1-n1c(=N)n(C)c2cnc3ccc(-c4ccc(Cl)cc4)cc3c21    2
CC(=O)N1CCN([C@H]2C[C@H](n3c(=N)n(C)c4cnc5ccc(-c6ccc(Cl)cc6)cc5c43)C2)CC1    4.6
CSc1ccc(C#N)cc1-n1/c(=N/C#N)n(C)c2cnc3ccc(-c4ccc(Cl)cc4)cc3c21    247
Cc1ccc(C#N)cc1-n1c(=N)n(C)c2cnc3ccc(-c4ccc(Cl)c(C#N)c4)cc3c21    1210

I: COc1cccc(-c2ccc3ncc4c(c3c2)n(-c2cc(C#N)ccc2C)c(=N)n4C)c1
II: Cc1ccc(C#N)cc1-n1c(=N)n(C)c2cnc3ccc(-c4ccc(Cl)c(Cl)c4)cc3c21
Lab note: check whether I or II has the lower measured Papp. Pick one; state its label. I
(I: 678 ×10⁻⁶ cm/s, II: 1650 ×10⁻⁶ cm/s)

====

Each entry below lists one item and its recorded solubility value.
Test: Solubility pH 7.4
Assay type: physicochemical
Details: aqueous buffer, Table 3

Reference set (2 entries):
COc1ccc(-c2ccc3ncc4c(c3c2)n(-c2nccnc2C)c(=N)n4C)cc1OC    > 63 µg/mL
COc1ccc(-c2ccc3ncc4c(c3c2)n(-c2cncnc2)c(=N)n4C)cc1OC    > 61 µg/mL

Which solubility reading was recorded for the molecule `COc1ccnc(-n2c(=N)n(C)c3cnc4ccc(-c5ccc(Cl)cc5)cc4c32)n1` ? < 1 µg/mL
